Molecular target: SARS-CoV-2 wild-type RBD (SARS-CoV-2, UniProt P0DTC2)
Experiment: BLI
assayReadout: binding result

* ZL525 (antibody, V domains shown) V domain 1: QVQLVQSGAEVKKPGSSMKVSCQASGGTFSSHPISWIRQAPGQGLEWMGRIIPIAGMTDYGQKFQGRITITADTSTSTSYVELRGLRSQDTAFYYCAKDVGYSDYGSAYYFHTWGQGTLITVSS V domain 2: QSVLTQPPSVSGAPGQRVTISCTGSNSNIGAGYDVHWYQQLPGTAPKLLIYRNNKRPSGVPDRFSGSKSDTSASLAITGLQAEDEAHYYCQSFDSSLGGSLFGGGTKLAVL | binds
* BD56-104-R1-32 HCDR3 (antibody, V domains shown) VH: QVQLVQSGAEVKTPGSSVKVSCKASGGTFGSHSITWVRQAPGQGLEWMGRVIPILGIPDFAESFQGRVAITADRSTSTAHMELSRLRSEDTAVYYCARENGYSGYGAAANFDLWGQGTLVTVSS VL: QSVLTQPPSVSGAPGQRVTISCTGSNSNIGAGYDVHWYRQLPGTAPKLLIYVNNNRPSGVPDRFSGSRSGASASLAITGLQAEDEAEYYCQSYDSSLSGSIFGGGTKLTVL | binds
